- PROCEDURE_SUMMARY: Half life in water solution at 626.5 mg/l initial concentration under dark condition
- Assay type: physicochemical
MEASUREMENT_KIND: half-life at 626.5 mg/l (days)
Give the number; days is assumed, so skip it.

Item O=C(c1cc(Cl)c(Cl)[nH]1)c1c(O)cccc1O [PYOLUTEORIN] has what recorded half-life at 626.5 mg/l?
51.7

----------
- PROCEDURE_SUMMARY: Half life in phosphate buffer at pH 5.8 under dark condition
- Format: physicochemical
MEASUREMENT_KIND: half-life (days)
Give the number; days is assumed, so skip it.

Item O=C(c1cc(Cl)c(Cl)[nH]1)c1c(O)cccc1O has what recorded half-life?
34.8

----------
- PROCEDURE_SUMMARY: Half life in water solution at 54 degC under dark condition
- Format: physicochemical
MEASUREMENT_KIND: half-life (days)
Give the number; days is assumed, so skip it.

Item O=C(c1cc(Cl)c(Cl)[nH]1)c1c(O)cccc1O has what recorded half-life?
22

----------
- PROCEDURE_SUMMARY: Half life in phosphate buffer at pH 7 under dark condition
- Format: physicochemical
MEASUREMENT_KIND: half-life

Item O=C(c1cc(Cl)c(Cl)[nH]1)c1c(O)cccc1O has what recorded half-life?
54.1 days

----------
- PROCEDURE_SUMMARY: Half life in water solution at 70 degC under dark condition
- Type: physicochemical
MEASUREMENT_KIND: half-life (days)
Give the number; days is assumed, so skip it.

Item O=C(c1cc(Cl)c(Cl)[nH]1)c1c(O)cccc1O [PYOLUTEORIN] has what recorded half-life?
18.8

----------
- PROCEDURE_SUMMARY: Half life in phosphate buffer at pH 5.8 at room temperature under sunlight
- Assay type: physicochemical
MEASUREMENT_KIND: half-life
I'd appreciate it if you wrote the number followed by its unit.

Item O=C(c1cc(Cl)c(Cl)[nH]1)c1c(O)cccc1O has what recorded half-life?
42.5 h

----------
- PROCEDURE_SUMMARY: Half life under high-pressure mercury lamp light at room temperature
- Format: physicochemical
MEASUREMENT_KIND: half-life (h)
Give the number; h is assumed, so skip it.

Item O=C(c1cc(Cl)c(Cl)[nH]1)c1c(O)cccc1O has what recorded half-life?
74.4

----------
- PROCEDURE_SUMMARY: Half life under sunlight at room temperature
- Assay type: physicochemical
MEASUREMENT_KIND: half-life (h)
Give the number; h is assumed, so skip it.

Item O=C(c1cc(Cl)c(Cl)[nH]1)c1c(O)cccc1O has what recorded half-life?
84

----------
- PROCEDURE_SUMMARY: Half life in phosphate buffer at pH 6.6 under dark condition
- Format: physicochemical
MEASUREMENT_KIND: half-life (days)
Give the number; days is assumed, so skip it.

Item O=C(c1cc(Cl)c(Cl)[nH]1)c1c(O)cccc1O has what recorded half-life?
50.2

----------
- PROCEDURE_SUMMARY: Half life in water solution at 121.5 mg/l initial concentration under dark condition
- Assay type: physicochemical
MEASUREMENT_KIND: half-life at 121.5 mg/l (days)
Give the number; days is assumed, so skip it.

Item O=C(c1cc(Cl)c(Cl)[nH]1)c1c(O)cccc1O has what recorded half-life at 121.5 mg/l?
26.5

----------
- PROCEDURE_SUMMARY: Half life under fluorescent lamp light at room temperature
- Assay type: physicochemical
MEASUREMENT_KIND: half-life (days)
Give the number; days is assumed, so skip it.

Item O=C(c1cc(Cl)c(Cl)[nH]1)c1c(O)cccc1O [PYOLUTEORIN] has what recorded half-life?
23.2
